FYI, the data here is from ChEMBL document CHEMBL1201862.

molecular target: Ataxin-2 (Homo sapiens); experiment: qHTS for Inhibitors of ATXN expression.; type: functional
Hit rate of the full screen: of about 400,000 compounds, about 1,900 (0.47%) were called active. Not shown: some 14% with an inconclusive outcome. How the calls were made is not given here. This excerpt belongs to a sample that is enriched for actives.
Field 'call' accepts active, inactive

Answered cases to consult:
CC/C(=C(\c1ccc(O)cc1)c1ccc(OCCN(C)C)cc1)c1ccccc1	active
CCCC[C@@H](C)C[C@@H](C)C(=O)N(C)[C@@H](CC(C)C)C(=O)N[C@H](C(=O)N(C)[C@H](C(=O)N1C[C@@H](O)C[C@H]1C(=O)N1C(=O)C=C[C@@H]1C)C(C)C)C(C)OC(C)=O (stereo not given in full)	active
COc1ccc(C[C@@H]2NC[C@H](O)[C@@H]2OC(C)=O)cc1	active

[Q] Query: recorded result category for `COCCNC(=O)c1c(NC(=O)c2ccc(Br)o2)n(Cc2ccccc2)c2nc3ccccc3nc12` in this test
[A] inactive

[Q] Query: recorded result category for `COc1ccc(NC(=O)c2cccn(Cc3ccc(Cl)cc3)c2=O)c(OC)c1` in this test
[A] inactive

[Q] Query: recorded result category for `COc1ccc(S(=O)(=O)Nc2ccccc2OC)cc1NN=C1C(=O)NC(=S)NC1=O` in this test
[A] active

[Q] Query: recorded result category for `Nc1c(C(=O)NCCN2CCOCC2)c2nc3ccccc3nc2n1Cc1ccco1` in this test
[A] inactive
